test system: HCV 1b-BB7 subgenomic replicon; assay: microbe, parasite or virus in culture; assay type: cell-based, HCV genotype 1b; conditions: Hepatitis C virus, stable replicon, strain 1b BB7, 5% FBS, no human plasma; read-out: 1b BB7 5% FBS EC50
pEC50: −log10 of the molar value.
Binary call on pEC50: satisfied from 8 upward, not satisfied beneath that.

# COMPOUND, CLASS_NAME
rows = [
    ("CC(=O)CCCCN(c1cc2oc(-c3ccc(F)cc3)c(-c3ncc[nH]3)c2cc1C1CC1)S(C)(=O)=O", "satisfied"),
    ("CS(=O)(=O)N(CCN1CCCC1)c1cc2oc(-c3ccc(F)cc3)c(C3=NOCCN3)c2cc1C1CC1", "not satisfied"),
    ("CS(=O)(=O)N(CCCc1noc(=O)[nH]1)c1cc2oc(-c3ccc(F)cc3)c(-c3ncc[nH]3)c2cc1C1CC1", "not satisfied"),
    ("CS(=O)(=O)N(CCCc1cc(O)no1)c1cc2oc(-c3ccc(F)cc3)c(-c3ncc[nH]3)c2cc1C1CC1", "satisfied"),
    ("CC(C)(O)CCCN(c1cc2oc(-c3ccc(F)cc3)c(-c3ncc[nH]3)c2cc1C1CC1)S(C)(=O)=O", "satisfied"),
    ("CS(=O)(=O)N(CC1CCNC1)c1cc2oc(-c3ccc(F)cc3)c(-c3ncc[nH]3)c2cc1C1CC1 (stereo not shown)", "not satisfied"),
    ("CCOC(=O)CCCN(c1cc2oc(-c3ccc(F)cc3)c(C3=NOCCN3)c2cc1C1CC1)S(C)(=O)=O", "not satisfied"),
    ("CS(=O)(=O)N(CCCc1noc(=O)[nH]1)c1cc2oc(-c3ccc(F)cc3)c(C3=NOCCN3)c2cc1C1CC1", "not satisfied"),
    ("CC[S+]([O-])CCCN(c1cc2oc(-c3ccc(F)cc3)c(C3=NOCCN3)c2cc1C1CC1)S(C)(=O)=O (stereo not shown)", "not satisfied"),
    ("CS(=O)(=O)N(CCCS(N)(=O)=O)c1cc2oc(-c3ccc(F)cc3)c(C3=NOCCN3)c2cc1C1CC1", "not satisfied"),
    ("CS(=O)(=O)NC(=O)CCCN(c1cc2oc(-c3ccc(F)cc3)c(-c3ncc[nH]3)c2cc1C1CC1)S(C)(=O)=O", "not satisfied"),
    ("CS(=O)(=O)N(CCCN1CCCC1)c1cc2oc(-c3ccc(F)cc3)c(C3=NOCCN3)c2cc1C1CC1", "not satisfied"),
    ("CS(=O)(=O)N(CCCC(=O)O)c1cc2oc(-c3ccc(F)cc3)c(-c3ncc[nH]3)c2cc1C1CC1", "not satisfied"),
    ("CS(=O)(=O)N(Cc1cnc(-c2ccc3[nH]ccc3c2)s1)c1ccc2c(-c3ncc[nH]3)c(-c3ccccc3)oc2c1", "not satisfied"),
    ("COC(=O)CCCN(c1cc2oc(-c3ccc(F)cc3)c(-c3ncc[nH]3)c2cc1C1CC1)S(C)(=O)=O", "not satisfied"),
    ("[2H]C1([2H])NC(c2c(-c3ccc(F)cc3)oc3cc(N(CCCCS(C)(=O)=O)S(C)(=O)=O)c(C4CC4)cc23)=NO1", "satisfied"),
    ("CC(C)(O)C(O)CCN(c1cc2oc(-c3ccc(F)cc3)c(C3=NOCN3)c2cc1C1CC1)S(C)(=O)=O (stereo not shown)", "not satisfied"),
    ("CS(=O)(=O)N(CCC/C(N)=N/O)c1cc2oc(-c3ccc(F)cc3)c(C3=NOCCN3)c2cc1C1CC1", "not satisfied"),
    ("CS(=O)(=O)N(CCCN)c1cc2oc(-c3ccc(F)cc3)c(-c3ncc[nH]3)c2cc1C1CC1", "not satisfied"),
    ("CS(=O)(=O)N(CCOc1ccccc1)c1cc2oc(-c3ccc(F)cc3)c(-c3ncc[nH]3)c2cc1C1CC1", "not satisfied"),
    ("COc1ccc(CN(c2cc3oc(-c4ccc(F)cc4)c(-c4ncc(C)[nH]4)c3cc2C2CC2)S(C)(=O)=O)cc1", "not satisfied"),
]
